Molecular target: hPPARα (Homo sapiens, UniProt Q07869)
Sequence (Q07869 whole entry): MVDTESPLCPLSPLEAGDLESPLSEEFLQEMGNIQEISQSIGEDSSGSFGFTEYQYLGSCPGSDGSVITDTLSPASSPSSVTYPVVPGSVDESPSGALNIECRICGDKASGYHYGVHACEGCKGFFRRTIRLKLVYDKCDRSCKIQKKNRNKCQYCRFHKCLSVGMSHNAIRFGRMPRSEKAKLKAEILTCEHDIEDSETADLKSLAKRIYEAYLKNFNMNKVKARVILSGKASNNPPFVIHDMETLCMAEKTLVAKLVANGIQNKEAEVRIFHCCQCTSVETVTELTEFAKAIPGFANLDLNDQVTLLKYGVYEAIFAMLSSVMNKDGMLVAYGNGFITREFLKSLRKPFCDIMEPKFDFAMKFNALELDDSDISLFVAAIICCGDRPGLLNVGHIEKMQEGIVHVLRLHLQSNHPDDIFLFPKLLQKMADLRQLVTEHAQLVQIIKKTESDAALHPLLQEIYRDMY
Experiment: PPARα luciferase cell reporter assay (Indigo Biosciences)
Type: cell-based
Conditions: Table 6, cellular luciferase activity; read-out: α EC50
Description: With the focused subset of analogs in-hand, our efforts shifted to the evaluation of these derivatives for PPARα agonism. Preliminary evaluation utilized a commercially available PPARα luciferase cell reporter assay (Indigo Biosciences). The cell-line employed is engineered to constitutively express high-levels of hPPARα. […] Luciferase activity is detected indirectly through quantification of oxyluciferin production.
A collection of compounds and their measured log10(EC50)
quantity_kind: log10(EC50) (log10 of the value in µM)

INSERT INTO results (compound, measurement_target, number) VALUES
  ('COc1ccc(COc2ccc(CNc3cccc(OC(C)(C)C(=O)O)c3)c(OCc3ccc(OC)cc3)c2)cc1 [Compound 115]', 'hPPARα (Homo sapiens, UniProt Q07869)', 0.32),
  ('COc1ccc(COc2ccc(CNc3cccc(OCC(=O)O)c3)cc2)cc1 [Compound 130]', 'hPPARα (Homo sapiens, UniProt Q07869)', 1.47),
  ('CN(Cc1ccc(OCc2ccc(F)cc2)cc1)c1cccc(OC(C)(C)C(=O)O)c1 [Compound 153]', 'hPPARα (Homo sapiens, UniProt Q07869)', 0.23),
  ('COc1ccc(COc2ccc(CNc3cccc(C(=O)O)c3)c(OCc3ccc(OC)cc3)c2)cc1 [Compound 92]', 'hPPARα (Homo sapiens, UniProt Q07869)', 0.71),
  ('Fc1ccc(COc2ccc(CNc3cccc(-c4nnn[nH]4)c3)cc2)cc1 [Compound 148]', 'hPPARα (Homo sapiens, UniProt Q07869)', 0.76),
  ('O=C(O)c1cc(F)cc(NCc2ccc(OCc3ccc(F)cc3)cc2)c1 [Compound 185]', 'hPPARα (Homo sapiens, UniProt Q07869)', -0.15),
  ('CN(Cc1ccc(OCc2ccc(F)cc2)cc1)c1cccc(C(=O)O)c1 [Compound 151]', 'hPPARα (Homo sapiens, UniProt Q07869)', 0.00),
  ('O=C(O)c1cccc(NCc2ccc(OCc3ccc(C(F)(F)F)cc3)cc2)c1 [Compound 126]', 'hPPARα (Homo sapiens, UniProt Q07869)', -0.10),
  ('O=C(O)c1cc(Br)cc(NCc2ccc(OCc3ccc(F)cc3)cc2)c1 [Compound 184]', 'hPPARα (Homo sapiens, UniProt Q07869)', -0.05),
  ('O=C(O)c1cccc(NCc2ccc(OCc3ccc(I)cc3)cc2)c1 [Compound 189]', 'hPPARα (Homo sapiens, UniProt Q07869)', 0.08),
  ('O=C(O)c1cccc(NCc2ccc(OCc3cccc(F)c3)cc2)c1 [Compound 193]', 'hPPARα (Homo sapiens, UniProt Q07869)', 0.04),
  ('Cc1cc(CNc2cccc(C(=O)O)c2)ccc1OCc1ccc(F)cc1 [Compound 190]', 'hPPARα (Homo sapiens, UniProt Q07869)', -1.52),
  ('O=C(O)c1cccc(NCc2ccc(OCc3ccc(Br)cc3)cc2)c1 [Compound 192]', 'hPPARα (Homo sapiens, UniProt Q07869)', -0.10);

----------
Assay: Solubilities of various compounds
Format: physicochemical
Settings: water; H2O; read-out: H2O Solubility
Reported solubility by item:
quantity_kind: solubility (µM)

INSERT INTO assay_data (compound, quantity_kind, uom, number) VALUES
  ('CC(C)(Oc1ccc(C(=O)c2ccc(Cl)cc2)cc1)C(=O)O [Fenofibric acid, fenofibric acid, reference compound]', 'solubility', 'µM', 93),
  ('Cc1cc(CNc2cccc(C(=O)OCOP(=O)(O)O)c2)ccc1OCc1ccc(F)cc1', 'solubility', 'µM', 284),
  ('Cc1cc(CNc2cccc(C(=O)OCOP(=O)([O-])O)c2)ccc1OCc1ccc(F)cc1.[Na+]', 'solubility', 'µM', 318);

----------
Target: hPPARα (Homo sapiens, UniProt Q07869)
Test: PPARα luciferase cell reporter assay (Indigo Biosciences)
Format: cell-based
Conditions: 50 μM; structure IIa compounds (Table 6)
Output schema: class label derived from Fold (50 μM): fold increase in luciferase compared to DMSO negative control. Mapping: low-valued = under 40 fold, mid-valued = from 40 fold up to 60 fold, high-valued = 60 fold and over

INSERT INTO results (entry_smiles, measurement_target, cat) VALUES
  ('COc1ccc(COc2ccc(CNc3cccc(OCC(=O)O)c3)cc2)cc1', 'hPPARα (Homo sapiens, UniProt Q07869)', 'mid-valued'),
  ('Cc1cc(CN(C)c2cccc(C(=O)O)c2)ccc1OCc1ccc(F)cc1', 'hPPARα (Homo sapiens, UniProt Q07869)', 'high-valued'),
  ('O=C(O)c1cccc(NCc2ccc(OCc3ccc(I)cc3)cc2)c1', 'hPPARα (Homo sapiens, UniProt Q07869)', 'low-valued'),
  ('CC(C)(Oc1cccc(NCc2ccc(OCc3ccc(C(F)(F)F)cc3)cc2)c1)C(=O)O', 'hPPARα (Homo sapiens, UniProt Q07869)', 'high-valued'),
  ('O=C(O)c1cccc(NCc2ccc(OCc3ccc(Br)cc3)cc2)c1', 'hPPARα (Homo sapiens, UniProt Q07869)', 'mid-valued'),
  ('O=C(O)c1cccc(NCc2ccc(OCc3ccccc3)cc2)c1', 'hPPARα (Homo sapiens, UniProt Q07869)', 'low-valued'),
  ('CC(C)(Oc1cccc(NCc2ccc(OCc3ccc(F)cc3)cc2)c1)C(=O)O', 'hPPARα (Homo sapiens, UniProt Q07869)', 'high-valued'),
  ('CN(Cc1ccc(OCc2ccc(F)cc2)cc1)c1cccc(OC(C)(C)C(=O)O)c1', 'hPPARα (Homo sapiens, UniProt Q07869)', 'high-valued'),
  ('Fc1ccc(COc2ccc(CNc3cccc(-c4nnn[nH]4)c3)cc2)cc1', 'hPPARα (Homo sapiens, UniProt Q07869)', 'high-valued'),
  ('O=C(O)c1cc(Cl)cc(NCc2ccc(OCc3ccc(F)cc3)cc2)c1', 'hPPARα (Homo sapiens, UniProt Q07869)', 'high-valued'),
  ('Cc1cc(CNc2cccc(C(=O)O)c2)ccc1OCc1cc(F)cc(F)c1', 'hPPARα (Homo sapiens, UniProt Q07869)', 'high-valued'),
  ('COc1ccc(CCOc2ccc(CCNc3cccc(C(=O)O)c3)cc2)cc1', 'hPPARα (Homo sapiens, UniProt Q07869)', 'low-valued'),
  ('O=C(O)c1cccc(NCc2ccc(OCc3ccc(Cl)cc3)cc2)c1', 'hPPARα (Homo sapiens, UniProt Q07869)', 'low-valued'),
  ('CC(C)(Oc1cccc(NCc2ccc(OCc3ccccc3)cc2)c1)C(=O)O', 'hPPARα (Homo sapiens, UniProt Q07869)', 'mid-valued'),
  ('O=C(NO)c1cccc(NCc2ccc(OCc3ccc(F)cc3)cc2)c1', 'hPPARα (Homo sapiens, UniProt Q07869)', 'mid-valued'),
  ('OB(O)c1cccc(NCc2ccc(OCc3ccc(F)cc3)cc2)c1', 'hPPARα (Homo sapiens, UniProt Q07869)', 'low-valued'),
  ('CC(C)(Oc1cccc(NCc2ccc(OCc3cc(F)cc(F)c3)cc2)c1)C(=O)O', 'hPPARα (Homo sapiens, UniProt Q07869)', 'mid-valued'),
  ('O=C(O)c1cccc(NCc2ccc(OCc3ccc(F)cc3F)cc2)c1', 'hPPARα (Homo sapiens, UniProt Q07869)', 'mid-valued'),
  ('O=C(O)c1cccc(NCc2ccc(OCc3cccc(F)c3)cc2)c1', 'hPPARα (Homo sapiens, UniProt Q07869)', 'mid-valued'),
  ('COc1ccc(COc2ccc(CNc3cccc(B(O)O)c3)cc2)cc1', 'hPPARα (Homo sapiens, UniProt Q07869)', 'low-valued'),
  ('O=C(O)COc1cccc(NCc2ccc(OCc3ccc(C(F)(F)F)cc3)cc2)c1', 'hPPARα (Homo sapiens, UniProt Q07869)', 'high-valued'),
  ('CC(C)(Oc1cccc(NCc2ccc(OCc3ccc(Cl)cc3)cc2)c1)C(=O)O', 'hPPARα (Homo sapiens, UniProt Q07869)', 'mid-valued'),
  ('NS(=O)(=O)c1cccc(NCc2ccc(OCc3ccc(F)cc3)cc2)c1', 'hPPARα (Homo sapiens, UniProt Q07869)', 'low-valued'),
  ('O=C(O)c1cccc(NCc2ccc(OCc3ccccc3F)cc2)c1', 'hPPARα (Homo sapiens, UniProt Q07869)', 'mid-valued'),
  ('O=C(O)c1cccc(NCc2ccc(OCc3ccc(Cl)cc3Cl)cc2)c1', 'hPPARα (Homo sapiens, UniProt Q07869)', 'low-valued'),
  ('O=C(O)c1cccc(NCc2ccc(OCc3ccc([N+](=O)[O-])cc3)cc2)c1', 'hPPARα (Homo sapiens, UniProt Q07869)', 'low-valued'),
  ('O=C(O)c1cc(F)cc(NCc2ccc(OCc3ccc(F)cc3)cc2)c1', 'hPPARα (Homo sapiens, UniProt Q07869)', 'high-valued'),
  ('CS(=O)(=O)Nc1cccc(NCc2ccc(OCc3ccc(F)cc3)cc2)c1', 'hPPARα (Homo sapiens, UniProt Q07869)', 'low-valued'),
  ('O=C(O)c1cccc(NCCc2ccc(OCCc3ccccc3)cc2)c1', 'hPPARα (Homo sapiens, UniProt Q07869)', 'low-valued'),
  ('COc1ccc(COc2ccc(CNc3cccc(C(=O)O)c3)c(OCc3ccc(OC)cc3)c2)cc1', 'hPPARα (Homo sapiens, UniProt Q07869)', 'low-valued'),
  ('CC(C)(Sc1cccc(NCc2ccc(OCc3ccc(F)cc3)cc2)c1)C(=O)O', 'hPPARα (Homo sapiens, UniProt Q07869)', 'mid-valued'),
  ('COc1ccc(COc2ccc(CNc3cccc(C(=O)NO)c3)cc2)cc1', 'hPPARα (Homo sapiens, UniProt Q07869)', 'low-valued'),
  ('O=C(O)c1cccc(NCc2ccc(OCc3ccc(C(F)(F)F)cc3)cc2)c1', 'hPPARα (Homo sapiens, UniProt Q07869)', 'high-valued');
